tested on: ACHN renal; test: NCI tumour cell line growth inhibition, 48 h
Measurement Kind: TGI (µM)
Answers are plain numbers, in µM.

Illustrative cases are given below, each with its answer.
CC(C)(C)n1cc(-c2ccnc(NCCNS(=O)(=O)c3cccc4ccccc34)c2)c(-c2cccc(F)c2)n1 = 49
Cn1c(=O)c2[nH]c(-n3nc(-c4ccccc4)cc3N)nc2n(C)c1=O = 37

// input: 7 compounds below; output: TGI for each
1. COc1cccc(/C=N/n2c(Cc3ccc(Cl)cc3)n[nH]c2=O)c1
2. COc1cc(/C=C2\CCc3ccccc3C2=O)cc(OC)c1OC
3. COc1ccc(N2C(=O)C3c4[nH]c5ccccc5c4C4CCC(C(C)(C)C)CC4C3C2=O)cc1OC (stereo unspecified)
4. CC(C)=CCC/C(C)=C/CC/C(C)=C/CSc1ccc(Cl)cc1C(=O)O
5. CN(C)/C=N/S(=O)(=O)c1nn2c(C=O)c(-c3cc4ccccc4oc3=O)nc2s1
6. CCCCc1nc2cc(/C=C/C(=O)NO)ccc2n1CCN(CC)CC
7. Oc1ccc(-c2nc3ccc4[nH]ncc4c3c3c2CCCC3)c2cccnc12

1. 67.3
2. 29.6
3. 46.6
4. 35.9
5. 5.9
6. 1.44
7. 3.07
